Literature survey of IC50 (system: TACE (Homo sapiens (Human))).

>>> observed_measurement("Cc1cc(C2(Cn3cccc(C)c3=O)NC(=O)NC2=O)cc(C)c1OC1CCCC1 (stereo not drawn)")
"< 100 nM"
>>> observed_measurement("CC#CCOc1ccc(S(=O)(=O)C2(C(=O)NO)CCN(C(=O)OC(C)(C)C)CC2)cc1")
"134 nM"

Now take the following compound into account.
Measured IC50 for this entry CC(C)(C)CC(CS(=O)(=O)N1CCc2cc(C(F)(F)F)ccc2C1)N(O)C=O (stereo not drawn) on TACE (Homo sapiens (Human)): > 5000 nM
